target_under_test: Melanocyte-stimulating hormone receptor (Mus musculus, UniProt Q01727)
Sequence (Q01727 whole entry): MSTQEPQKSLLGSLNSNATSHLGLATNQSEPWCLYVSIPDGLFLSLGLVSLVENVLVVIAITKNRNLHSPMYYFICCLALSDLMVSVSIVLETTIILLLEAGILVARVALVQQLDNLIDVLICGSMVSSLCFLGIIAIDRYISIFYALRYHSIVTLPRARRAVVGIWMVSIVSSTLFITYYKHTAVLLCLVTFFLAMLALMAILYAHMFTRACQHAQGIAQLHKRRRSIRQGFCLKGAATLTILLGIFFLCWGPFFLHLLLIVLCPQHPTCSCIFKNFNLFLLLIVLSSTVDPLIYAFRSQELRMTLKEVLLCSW
experimental_details: Agonist activity at mouse melanocortin-1 receptor expressed in HEK293 cells co-transfected with CRE/beta-galactosidase reporter gene assessed as stimulatory response after 6 hrs
Where a SMILES comes first, the peptide text is derived from it. [ ]: non-standard residue; d: D form. Phe(4-I) = N[C@@H](Cc1ccc(I)cc1)C(=O)O; dPhe(4-I) = N[C@H](Cc1ccc(I)cc1)C(=O)O
Lab note - cut at 4 nM for EC50: yes if strictly below, no if not.

CC(=O)N[C@@H](Cc1cnc[nH]1)C(=O)N[C@H](Cc1ccc(Cl)cc1)C(=O)N[C@@H](CCCNC(=N)N)C(=O)N[C@@H](Cc1ccc(I)cc1)C(N)=O ... no
CC(=O)N[C@@H](CCCNC(=N)N)C(=O)N[C@H](Cc1ccc(I)cc1)C(=O)N1Cc2ccccc2C[C@H]1C(=O)N[C@H](Cc1ccc([N+](=O)[O-])cc1)C(N)=O ... yes

Please state whether EC50 is below 4 nM for CC(=O)N[C@@H](CCCNC(=N)N)C(=O)N[C@H](Cc1ccc(Cl)cc1)C(=O)N1Cc2ccccc2C[C@H]1C(=O)N[C@H](Cc1ccc([N+](=O)[O-])cc1)C(N)=O
no

Another compound: CC(=O)N[C@@H](Cc1cnc[nH]1)C(=O)N[C@H](Cc1ccc(I)cc1)C(=O)N[C@@H](CCCNC(=N)N)C(=O)N[C@@H](Cc1ccc(I)cc1)C(N)=O (Ac-H[dPhe(4-I)]R[Phe(4-I)]-NH2)
no

Please do the same for CC(=O)N[C@@H](Cc1c[nH]cn1)C(=O)N[C@H](Cc1ccc(I)cc1)C(=O)N1Cc2ccccc2C[C@H]1C(=O)N[C@H](Cc1ccc([N+](=O)[O-])cc1)C(N)=O as well.
yes

----------
target_under_test: Melanocortin receptor 3 (Mus musculus, UniProt P33033)
Sequence (P33033 whole entry): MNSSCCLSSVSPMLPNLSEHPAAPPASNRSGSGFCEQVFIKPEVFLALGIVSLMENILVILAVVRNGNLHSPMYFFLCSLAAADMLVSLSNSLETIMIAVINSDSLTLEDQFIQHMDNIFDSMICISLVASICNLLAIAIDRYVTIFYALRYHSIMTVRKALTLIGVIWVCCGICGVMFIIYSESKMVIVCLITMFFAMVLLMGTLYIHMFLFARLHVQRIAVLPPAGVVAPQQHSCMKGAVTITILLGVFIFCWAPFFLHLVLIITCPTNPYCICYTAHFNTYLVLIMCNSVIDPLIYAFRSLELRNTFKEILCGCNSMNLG
experimental_details: Agonist activity at mouse melanocortin-3 receptor expressed in HEK293 cells co-transfected with CRE/beta-galactosidase reporter gene assessed as stimulatory response after 6 hrs
Type: functional, cell-based
List of pEC50 values.
When answering, recall that pEC50 equals minus log10 of the concentration in mol/L, and write that number alone.

Answered examples (3):
CC(=O)N[C@@H](Cc1cnc[nH]1)C(=O)N[C@H](Cc1ccc(Cl)cc1)C(=O)N1Cc2ccccc2CC1C(=O)N[C@H](Cc1ccc([N+](=O)[O-])cc1)C(N)=O (some centres undefined) ... 7.26
CC(=O)N[C@@H](Cc1cnc[nH]1)C(=O)N[C@H](Cc1ccc(I)cc1)C(=O)N1Cc2ccccc2CC1C(=O)N[C@H](Cc1ccc([N+](=O)[O-])cc1)C(N)=O (some centres undefined) ... 7.46
CC(=O)N[C@@H](CCCNC(=N)N)C(=O)N[C@H](Cc1ccc(I)cc1)C(=O)N1Cc2ccccc2CC1C(=O)N[C@H](Cc1ccc([N+](=O)[O-])cc1)C(N)=O (some centres undefined) ... 7.33

Attention now shifts to the item below.
Which measured pEC50 belongs to CC(=O)N[C@@H](CCCNC(=N)N)C(=O)N[C@H](Cc1ccc(Cl)cc1)C(=O)N1Cc2ccccc2CC1C(=O)N[C@H](Cc1ccc([N+](=O)[O-])cc1)C(N)=O (some centres undefined) , tested on Melanocortin receptor 3 (Mus musculus, UniProt P33033)?
7.03

----------
target_under_test: Melanocortin receptor 4 (Homo sapiens, UniProt P32245, L106P)
Sequence (P32245 whole entry L106P): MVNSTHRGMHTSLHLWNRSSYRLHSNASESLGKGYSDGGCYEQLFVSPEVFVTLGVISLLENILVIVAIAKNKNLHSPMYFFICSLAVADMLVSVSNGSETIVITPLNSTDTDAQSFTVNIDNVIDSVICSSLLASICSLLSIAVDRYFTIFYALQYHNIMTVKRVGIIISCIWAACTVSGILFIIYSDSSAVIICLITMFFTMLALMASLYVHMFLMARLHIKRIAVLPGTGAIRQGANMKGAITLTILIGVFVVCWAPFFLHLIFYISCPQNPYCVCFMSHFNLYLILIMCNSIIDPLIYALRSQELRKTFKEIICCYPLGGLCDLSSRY
experimental_details: Agonist activity at human melanocortin-4 receptor L106P mutant expressed in HEK293 cells co-transfected with CRE/beta-galactosidase reporter gene assessed as stimulatory response after 6 hrs
Type: functional, cell-based
Where a SMILES comes first, the peptide text is derived from it. [ ]: non-standard residue; d: D form. dPhe(4-I) = N[C@H](Cc1ccc(I)cc1)C(=O)O; Tic = O=C(O)[C@@H]1Cc2ccccc2CN1
Listing of entries alongside the reported EC50.
Form entry: value (µM) — number only.

CC(=O)N[C@@H](Cc1cnc[nH]1)C(=O)N[C@H](Cc1ccccc1)C(=O)N[C@@H](CCCCN)C(=O)N[C@@H](Cc1c[nH]c2ccccc12)C(N)=O ... 6.24

Read the next record carefully.
Data request, read-out EC50, for CC(=O)N[C@@H](Cc1c[nH]cn1)C(=O)N[C@H](Cc1ccc(I)cc1)C(=O)N[C@@H](CCCNC(=N)N)C(=O)N1Cc2ccccc2C[C@H]1C(N)=O (Ac-H[dPhe(4-I)]R[Tic]-NH2)
6.92

----------
target_under_test: UniProtKB P32245
experimental_details: Agonist activity at wild type human melanocortin-4 receptor expressed in HEK293 cells co-transfected with CRE/beta-galactosidase reporter gene assessed as stimulatory response after 6 hrs
Format: functional, cell-based
Where a SMILES comes first, the peptide text is derived from it. [ ]: non-standard residue; d: D form. dTic = O=C(O)[C@H]1Cc2ccccc2CN1
property_name: EC50 (nM)
Return type: number; implicit unit nM.

Worked examples, 4 molecules total:
CC(=O)N[C@@H](Cc1cnc[nH]1)C(=O)N[C@H](Cc1ccccc1)C(=O)N[C@@H](CCCNC(=N)N)C(=O)N[C@@H](Cc1ccc([N+](=O)[O-])cc1)C(N)=O ... 195
CC(=O)N[C@@H](Cc1c[nH]cn1)C(=O)N[C@H](Cc1ccc(Cl)cc1)C(=O)N[C@@H](CCCNC(=N)N)C(=O)N1Cc2ccccc2C[C@H]1C(N)=O ... 110
CC(=O)N[C@@H](CCCNC(=N)N)C(=O)N[C@H](Cc1ccc(I)cc1)C(=O)N1Cc2ccccc2C[C@H]1C(=O)N[C@H](Cc1ccc([N+](=O)[O-])cc1)C(N)=O ... 0.26
CC(=O)N1Cc2ccccc2C[C@H]1C(=O)N[C@H](Cc1ccc(Cl)cc1)C(=O)N[C@@H](CCCNC(=N)N)C(=O)N[C@H](Cc1ccc([N+](=O)[O-])cc1)C(N)=O ... 40

Fill in: EC50 of CC(=O)N1Cc2ccccc2C[C@@H]1C(=O)N[C@H](Cc1ccccc1)C(=O)N[C@@H](CCCN=C(N)N)C(=O)N[C@@H](Cc1c[nH]c2ccccc12)C(N)=O (Ac-[dTic][dF]RW-NH2) is ___
297

Now the same for CC(=O)N1Cc2ccccc2C[C@H]1C(=O)N[C@H](Cc1ccc(Cl)cc1)C(=O)N1Cc2ccccc2C[C@H]1C(=O)N[C@H](Cc1ccc([N+](=O)[O-])cc1)C(N)=O
9.6

Also CC(=O)N[C@@H](Cc1cnc[nH]1)C(=O)N[C@H](Cc1ccc(I)cc1)C(=O)N1Cc2ccccc2CC1C(=O)N[C@@H](Cc1ccc(I)cc1)C(N)=O (some centres not stated) , if possible.
7.42

Also CC(=O)N[C@@H](Cc1c[nH]cn1)C(=O)N[C@H](Cc1ccc(I)cc1)C(=O)N1Cc2ccccc2C[C@H]1C(=O)N1Cc2ccccc2C[C@H]1C(N)=O ?
24

And for CC(=O)N[C@@H](Cc1c[nH]cn1)C(=O)N[C@H](Cc1ccc(Cl)cc1)C(=O)N1Cc2ccccc2C[C@H]1C(=O)N1Cc2ccccc2C[C@H]1C(N)=O ?
160

# iterate: CC(=O)N1Cc2ccccc2C[C@H]1C(=O)N[C@H](Cc1ccc(I)cc1)C(=O)N[C@@H](CCCNC(=N)N)C(=O)N[C@H](Cc1ccc([N+](=O)[O-])cc1)C(N)=O
20

Can you check CC(=O)N1Cc2ccccc2C[C@H]1C(=O)N[C@H](Cc1ccc(Cl)cc1)C(=O)N[C@@H](CCCNC(=N)N)C(=O)N1Cc2ccccc2C[C@H]1C(N)=O next?
960

----------
target_under_test: Melanocortin receptor 4 (Homo sapiens, UniProt P32245, L106P)
experimental_details: Agonist activity at human melanocortin-4 receptor L106P mutant expressed in HEK293 cells co-transfected with CRE/beta-galactosidase reporter gene assessed as stimulatory response after 6 hrs
Type: functional, cell-based
# label = fulfilled if EC50 < 800 nM else not fulfilled

CC(=O)N[C@@H](CCCNC(=N)N)C(=O)N[C@H](Cc1ccc(Cl)cc1)C(=O)N1Cc2ccccc2CC1C(=O)N[C@@H](Cc1ccc(I)cc1)C(N)=O (some centres not stated) ... fulfilled
CC(=O)N[C@@H](CCCNC(=N)N)C(=O)N[C@H](Cc1ccc(I)cc1)C(=O)N1Cc2ccccc2CC1C(=O)N[C@@H](Cc1ccc(I)cc1)C(N)=O (some centres not stated) ... not fulfilled
CC(=O)N1Cc2ccccc2C[C@H]1C(=O)N[C@H](Cc1ccc(I)cc1)C(=O)N1Cc2ccccc2C[C@H]1C(=O)N[C@H](Cc1ccc([N+](=O)[O-])cc1)C(N)=O ... fulfilled
CC(=O)N[C@@H](CCCNC(=N)N)C(=O)N[C@H](Cc1ccc(Cl)cc1)C(=O)N1Cc2ccccc2C[C@H]1C(=O)N[C@H](Cc1ccc([N+](=O)[O-])cc1)C(N)=O ... fulfilled
CC(=O)N[C@@H](CCCNC(=N)N)C(=O)N[C@H](Cc1ccc(Cl)cc1)C(=O)N[C@@H](CCCNC(=N)N)C(=O)N[C@@H](Cc1ccc(I)cc1)C(N)=O ... fulfilled
CC(=O)N[C@@H](Cc1c[nH]cn1)C(=O)N[C@H](Cc1ccc(Cl)cc1)C(=O)N1Cc2ccccc2C[C@H]1C(=O)N1Cc2ccccc2C[C@H]1C(N)=O ... not fulfilled
CC(=O)N[C@@H](CCCNC(=N)N)C(=O)N[C@H](Cc1ccc(I)cc1)C(=O)N1Cc2ccccc2C[C@H]1C(=O)N1Cc2ccccc2C[C@H]1C(N)=O ... not fulfilled
CC(=O)N1Cc2ccccc2C[C@H]1C(=O)N[C@H](Cc1ccc(Cl)cc1)C(=O)N1Cc2ccccc2C[C@H]1C(=O)N[C@H](Cc1ccc([N+](=O)[O-])cc1)C(N)=O ... fulfilled

Does this compound meet the criterion EC50 < 800 nM? CC(=O)N1Cc2ccccc2CC1C(=O)N[C@H](Cc1ccc(Cl)cc1)C(=O)N1Cc2ccccc2CC1C(=O)N[C@@H](Cc1ccc(I)cc1)C(N)=O (some centres not stated)
not fulfilled

Next entry: CC(=O)N[C@@H](CCCNC(=N)N)C(=O)N[C@H](Cc1ccc(Cl)cc1)C(=O)N[C@@H](CCCNC(=N)N)C(=O)N1Cc2ccccc2C[C@H]1C(N)=O
not fulfilled

Same again, this time with CC(=O)N1Cc2ccccc2CC1C(=O)N[C@H](Cc1ccc(Cl)cc1)C(=O)N[C@@H](CCCNC(=N)N)C(=O)N[C@@H](Cc1ccc(I)cc1)C(N)=O (some centres not stated)
fulfilled
